Provenance of the data: patent US20260125454A1

Listed next: entries and their corresponding OD value.
Target: T1, Biotin-huCGRPaSA (human, not fully specified; biotin (position not given))
T1 construct: exact construct ('aSA') not explained; also called Biotin CGRPaSA; full-length (1-37) CGRP
T1 peptide: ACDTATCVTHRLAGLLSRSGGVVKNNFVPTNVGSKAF
Assay: ELISA, transfection supernatant, biotin-CGRP on streptavidin; also: test concentration or dose not given here

[
  {
    "BINDER": "C263 (antibody, V domains shown, 3E5-HC + 2B8-LC2; chimeric, human constant regions) VH: EVQLQQSGPELVKPGASVKISCKTSGYTFTDYNMHWVKQSHGKSLEWIGYISPYNGGTAYNQKFKFKSTLTVDTSSSTAYMELRSLTSEDSAVYYCAREGLGGYWGQGTTLTVSS VL: DVVLTQSPTSLAVSLGQRATISCQASQNIDGNTYMNWYQQKPGQPPKVLIYSIFNLESGIPARFSGSGSGTHFTLTIHPVEEEDAATYYCQQSNDYPYTFGGGTKLEIK",
    "UNIT TAG": "OD",
    "OD value": 3.02
  },
  {
    "BINDER": "C85 (antibody, V domains shown, 1F5-HC + 3E5-LC; chimeric, human constant regions) VH: EVQLQQSGPELVKPGASVKISCKTSGYTFIDFNMHWVKQSHGKSLEWIGYIYPYNGDVVYNQNFTNKATLTVDSSSSTAYMELRRVTSEDSAIYYCAREGLGGYWGQGTTLTVSS VL: DIVLTQSPASLAVSLGQRATISCKASQNIDYDGYTYLNWYQQKPGQPPKVLIYSIFNLESGIPARFSGSGSGTDFTLNIHPVEEEDAATYYCQQSNEVPYTFGGGTKLEIK",
    "UNIT TAG": "OD",
    "OD value": 3.11
  },
  {
    "BINDER": "C125 (antibody, V domains shown, 2B8-HC1 + 2B8-LC2; chimeric, human constant regions) VH: EVQLQQSGPELVKPGASVKISCKASGYTFTDYNMHWVKQSHGKSLEWIGNIYPYNGGTVYNQKFNNKATLTVHTSSSTAYMDLRSLTSDDSAVYYCAREGLGGYWGQGTTLTVSS VL: DVVLTQSPTSLAVSLGQRATISCQASQNIDGNTYMNWYQQKPGQPPKVLIYSIFNLESGIPARFSGSGSGTHFTLTIHPVEEEDAATYYCQQSNDYPYTFGGGTKLEIK",
    "UNIT TAG": "OD",
    "OD value": 3.08
  },
  {
    "BINDER": "C74 (antibody, V domains shown, 1F5-HC + 1F5-LC1; chimeric, human constant regions) VH: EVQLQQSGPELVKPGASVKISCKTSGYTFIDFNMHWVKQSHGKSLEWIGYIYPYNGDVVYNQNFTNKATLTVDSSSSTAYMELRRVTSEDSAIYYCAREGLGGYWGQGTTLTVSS VL: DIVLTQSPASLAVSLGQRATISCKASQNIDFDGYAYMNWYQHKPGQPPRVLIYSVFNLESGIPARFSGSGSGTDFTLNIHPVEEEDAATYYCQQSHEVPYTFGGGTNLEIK",
    "UNIT TAG": "OD",
    "OD value": 3.06
  },
  {
    "BINDER": "C92 (antibody, V domains shown, 1F5-HC + 3H10-LC2; chimeric, human constant regions) VH: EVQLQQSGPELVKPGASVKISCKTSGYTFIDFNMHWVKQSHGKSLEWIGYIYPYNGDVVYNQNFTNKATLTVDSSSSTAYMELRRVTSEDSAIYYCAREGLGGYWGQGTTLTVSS VL: DIVLTQSPDSLAVSLGQRATISCKASQNIDYGGYSYMNWYQQKPGQPPKVLIYSVFNLESGIPARFSGSGSGTDFTLTIHPVEEEDAATYYCQQSNEAPYTFGGGTKLEIR",
    "UNIT TAG": "OD",
    "OD value": 3.09
  }
]
